Target: full-length beta-Catenin (Uniprot ID P35222) (Homo sapiens (Human)) (UniProt P35222)
Sequence (P35222 2-781 limits assumed): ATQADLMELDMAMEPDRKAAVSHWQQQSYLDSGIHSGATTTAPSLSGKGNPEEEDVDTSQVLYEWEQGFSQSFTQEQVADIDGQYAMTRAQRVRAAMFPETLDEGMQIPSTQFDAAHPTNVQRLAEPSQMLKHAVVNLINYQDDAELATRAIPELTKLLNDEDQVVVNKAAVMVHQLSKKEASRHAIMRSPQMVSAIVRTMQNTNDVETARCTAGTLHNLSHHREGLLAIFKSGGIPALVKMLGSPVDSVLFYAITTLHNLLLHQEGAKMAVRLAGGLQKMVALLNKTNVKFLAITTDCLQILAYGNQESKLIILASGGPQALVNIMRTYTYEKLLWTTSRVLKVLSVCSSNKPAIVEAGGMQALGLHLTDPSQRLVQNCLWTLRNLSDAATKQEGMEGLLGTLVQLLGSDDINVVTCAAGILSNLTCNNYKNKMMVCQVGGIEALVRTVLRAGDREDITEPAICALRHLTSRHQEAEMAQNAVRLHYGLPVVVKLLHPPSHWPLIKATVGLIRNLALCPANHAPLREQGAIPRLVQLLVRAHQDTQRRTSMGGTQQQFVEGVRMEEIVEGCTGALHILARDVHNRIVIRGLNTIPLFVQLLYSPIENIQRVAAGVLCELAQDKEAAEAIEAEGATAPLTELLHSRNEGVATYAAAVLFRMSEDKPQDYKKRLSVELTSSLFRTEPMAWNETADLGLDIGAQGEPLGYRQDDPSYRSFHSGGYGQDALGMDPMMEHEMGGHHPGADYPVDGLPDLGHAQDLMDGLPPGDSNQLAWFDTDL
Assay: fluorescence polarization competition against 5FAM-TCF4 (10-53) on full-length beta-catenin
pIC50: −log10 of the molar value. Starred links: 1 amine or outer side, 2 acyl side, 3 side chain; linkers in the order of their positions; H or OH if unused. Positions of bridges follow the written chain, without caps; N, C: chain ends. Non-standard residues stand in square brackets, D forms with d. Primed or numbered codes have the meaning given here. PyrS2″ = (S)-3-amino-1-((pent-4-en-1-yloxy)carbonyl)pyrrolidine-3-carboxylic acid (stapling residue), C=CCCCOC(=O)N1CC[C@@](N[*:1])(C(=O)[*:2])C1; B5(3) = 2,2-bis(4-pentenyl)glycine (stitching residue), C=CCCCC(CCCC=C)(N[*:1])C(=O)[*:2]; Phe(3-COOH) = N[C@@H](Cc1cccc(C(=O)O)c1)C(=O)O; Phe(2-Cl) = N[C@@H](Cc1ccccc1Cl)C(=O)O; Bta = N[C@@H](Cc1csc2ccccc12)C(=O)O; αAllylPro = C=CC[C@@]1(C(=O)O)CCCN1; tBuAla = CC(C)(C)C[C@H](N)C(=O)O; 3Thi = N[C@@H](Cc1ccsc1)C(=O)O
measured parameter: pIC50

Illustrative cases are given below, each with its answer.
{"binder": "Ac-[αAllylPro]D[tBuAla][B5(3)]D[Phe(3-COOH)]AAFN[PyrS2″][Phe(2-Cl)][Bta]F-NH2 (staple 1-4, 4-11) [I-2033]", "readout number": 7.52}
{"binder": "Ac-[αAllylPro]D[tBuAla][B5(3)]D[Phe(3-COOH)]AAFF[PyrS2″][3Thi][Bta]N-NH2 (staple 1-4, 4-11) [I-2044]", "readout number": 8.05}
{"binder": "Ac-[αAllylPro]D[tBuAla][B5(3)]D[Phe(3-COOH)]AAFF[PyrS2″][Phe(2-Cl)][Bta]N-NH2 (staple 1-4, 4-11) [I-2037]", "readout number": 7.77}
{"binder": "Ac-[αAllylPro]D[tBuAla][B5(3)]D[Phe(3-COOH)]AAFL[PyrS2″][Phe(2-Cl)][Bta]NAA[dA]-NH2 (staple 1-4, 4-11) [I-2041]", "readout number": 7.80}
{"binder": "Ac-[αAllylPro]D[tBuAla][B5(3)]D[Phe(3-COOH)]AAFS[PyrS2″][3Thi][Bta]N-NH2 (staple 1-4, 4-11) [I-2045]", "readout number": 8.30}

(A) Ac-[αAllylPro]D[tBuAla][B5(3)]D[Phe(3-COOH)]AAFA[PyrS2″][3Thi][Bta]N-NH2 (staple 1-4, 4-11) [I-2042]
(B) Ac-[αAllylPro]D[tBuAla][B5(3)]D[Phe(3-COOH)]AAFA[PyrS2″][Phe(2-Cl)][Bta]N-NH2 (staple 1-4, 4-11) [I-2036]
Q: Hi team, can someone confirm which has the larger pIC50: A or B ? Thanks. Which one? Tell me its label.
Ans: A
(A: 8.05, B: 7.72)

(1) Ac-[αAllylPro]D[tBuAla][B5(3)]D[Phe(3-COOH)]SAFL[PyrS2″][3Thi][Bta]A-NH2 (staple 1-4, 4-11) [I-2050]
(2) Ac-[αAllylPro]D[tBuAla][B5(3)]D[Phe(3-COOH)]AAFA[PyrS2″][Phe(2-Cl)][Bta]N-NH2 (staple 1-4, 4-11; also: staple isomer, earlier eluting HPLC peak) [I-2035]
Q: Of 1 and 2 , whose reported pIC50 is numerically smaller? Which one? Tell me its label.
Ans: 2
(2: 7.80, 1: 8.05)

(A) Ac-[αAllylPro]D[tBuAla][B5(3)]D[Phe(3-COOH)]AAFL[PyrS2″][Phe(2-Cl)][Bta]NAAA-NH2 (staple 1-4, 4-11) [I-2040]
(B) Ac-[αAllylPro]D[tBuAla][B5(3)]D[Phe(3-COOH)]AAFL[PyrS2″][3Thi][Bta]N-NH2 (staple 1-4, 4-11) [I-2043]
Q: Hi team, can someone confirm which has the larger pIC50: A or B ? Thanks. Which one? Tell me its label.
Ans: B
